# ASSAYED_SYSTEM: TDP43(WT) (UniProt Q13148 1-414)
# Sequence (Q13148 whole entry): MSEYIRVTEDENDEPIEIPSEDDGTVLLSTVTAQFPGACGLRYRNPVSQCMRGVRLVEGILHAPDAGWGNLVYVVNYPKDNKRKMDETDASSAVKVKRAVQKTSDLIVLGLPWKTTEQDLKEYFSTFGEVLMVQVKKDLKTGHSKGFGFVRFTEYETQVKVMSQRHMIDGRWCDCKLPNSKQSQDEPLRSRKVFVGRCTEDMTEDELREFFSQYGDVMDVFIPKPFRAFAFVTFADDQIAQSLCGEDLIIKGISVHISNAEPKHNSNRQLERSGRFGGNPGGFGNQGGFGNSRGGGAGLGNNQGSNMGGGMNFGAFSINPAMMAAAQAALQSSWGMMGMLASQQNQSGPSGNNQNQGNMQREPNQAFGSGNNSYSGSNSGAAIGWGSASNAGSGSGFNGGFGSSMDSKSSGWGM
# METHOD_NOTES: EMSA

# BINDER, Kd
measured = [
    ("UGUGUGUGUGUGUGUGUGUGUGUG (ssRNA) [(UG)12]", "0.35 nM"),
]
